Protein target, amino acids: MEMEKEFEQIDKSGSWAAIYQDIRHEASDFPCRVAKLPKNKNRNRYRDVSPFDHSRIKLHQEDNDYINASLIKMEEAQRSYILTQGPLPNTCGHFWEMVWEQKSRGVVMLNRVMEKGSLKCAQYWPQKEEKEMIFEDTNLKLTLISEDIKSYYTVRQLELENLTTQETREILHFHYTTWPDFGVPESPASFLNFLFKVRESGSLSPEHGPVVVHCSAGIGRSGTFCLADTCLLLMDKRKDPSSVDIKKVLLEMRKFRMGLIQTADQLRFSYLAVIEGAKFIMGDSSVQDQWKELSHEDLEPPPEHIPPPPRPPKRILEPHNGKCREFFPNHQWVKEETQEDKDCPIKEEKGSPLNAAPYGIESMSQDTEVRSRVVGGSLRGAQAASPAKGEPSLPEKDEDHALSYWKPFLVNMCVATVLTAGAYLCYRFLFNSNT
OBSERVED PROPERTY: pIC50
Bear in mind: pIC50 is minus log10 of a mol/L concentration; give just that figure.

Previously resolved entries follow.
STRUCTURE AS SMILES: O=C(O)C(=O)c1ccc(OCc2ccc(COc3ccc(C(=O)C(=O)O)cc3)c(C(=O)Nc3ccc(Oc4ccc(SC(F)(F)F)cc4)cc3)c2)cc1
pIC50: 5.80
//
STRUCTURE AS SMILES: CCc1ccc(Oc2ccc(NC(=O)c3cc(COc4ccc(C(=O)C(=O)O)cc4)ccc3COc3ccc(C(=O)C(=O)O)cc3)cc2)cc1
pIC50: 6.31
//
STRUCTURE AS SMILES: CCCCCCc1ccc(Oc2ccc(NC(=O)c3cc(COc4ccc(C(=O)C(=O)O)cc4)ccc3COc3ccc(C(=O)C(=O)O)cc3)cc2)cc1
pIC50: 5.92

Now look at this entry.
Problem: Need pIC50, item O=C(O)C(=O)c1ccc(OCc2ccc(COc3ccc(C(=O)C(=O)O)cc3)c(C(=O)Nc3ccc(Oc4ccc(-c5ccccc5)cc4)cc3)c2)cc1
Solution: 6.66
